Tested on: HEK-293T
Assay: Multiplex assay against HEK293T
Type: toxicity, cell-based
Conditions: human, 24 h, 1 µM, compound concentration 1 uM, replicate 2
Form field: Population Normal (%) (one value per entry).
Provide only the numeric value, understood in %.

Which value of Population Normal (%) has been reported for CC[C@H]1OC(=O)[C@H](C)[C@@H](O[C@H]2C[C@@](C)(OC)[C@@H](O)[C@H](C)O2)[C@H](C)[C@@H](O[C@@H]2O[C@H](C)C[C@H](N(C)C)[C@H]2O)[C@@]2(C)CC(C)=C(O2)[C@H](C)[C@@H](O)[C@]1(C)O in the records? 93

----------
Test system: U2OS
Assay: Multiplex assay against U2OS
Assay type: toxicity, cell-based
Details: human, 48 h, 1 µM, compound concentration 1 uM, replicate 1
Form field: Population Apoptotic (%) (one value per entry).
Provide only the numeric value, understood in %.

Some entries whose results are on file:
Compound	Units label	Population Apoptotic (%)
C[C@H]1[C@H]2CC[C@H]3[C@@H]4CC=C5C[C@@H](N(C)C)CC[C@]5(C)[C@H]4CC[C@]23CN1C [CONESSINE]	%	83
O=C(O)c1cc2ccccc2c(Cc2c(O)c(C(=O)O)cc3ccccc23)c1O [PAMOIC ACID]	%	83
CCCC(CCC)C(=O)O [VALPROIC ACID]	%	76

Which value of Population Apoptotic (%) has been reported for C[C@@H]1C[C@H]2[C@@H]3CCC4=CC(=O)C=C[C@]4(C)[C@@]3(F)[C@@H](O)C[C@]2(C)[C@@]1(O)C(=O)CO [DEXAMETHASONE] in the records? 84

Which value of Population Apoptotic (%) has been reported for COc1cc(C(=O)N(CCCc2ccccc2)Cc2ccc(CC(=O)O)cc2)cc(OC)c1C in the records? 86

Which value of Population Apoptotic (%) has been reported for CN(C)CCCc1cc(C(=O)Nc2ccc(-c3ccncc3)cc2)ccc1O.Cl.Cl in the records? 88

Which value of Population Apoptotic (%) has been reported for CC[C@H]1OC(=O)[C@H](C)[C@@H](O[C@H]2C[C@@](C)(OC)[C@@H](O)[C@H](C)O2)[C@H](C)[C@@H](O[C@@H]2O[C@H](C)C[C@H](N(C)C)[C@H]2O)[C@@]2(C)CC(C)=C(O2)[C@H](C)[C@@H](O)[C@]1(C)O in the records? 67
